assay: Approximate solubility in solvents at 25° C. and 50° C. by visual observation; format: physicochemical; conditions: organic solvent or mixture, thermodynamic from solid; Heptanes, 50° C.; read-out: Solubility
readout: Solubility

input: Answer with reported Solubility of CCOC(=O)[C@H](C)NP(=O)(COCCn1cnc2c(OC)nc(N)nc21)OCc1ccccc1 (stereo partly shown) [Compound I]
output: < 10000 µg/mL

###

assay: Hygroscicity by Dynamic Vapor Sorption (DVS) at 25° C.; assay type: physicochemical; conditions: cycle 40-0-95-0-40% RH, 25° C.
readout: XRPD after DVS test

CCOC(=O)C(C)NP(=O)(COCCn1cnc2c(OC)nc(N)nc21)OCc1ccccc1.O=C(O)C=CC(=O)O (mixture of isomers) [Compound I Monofumarate Pattern 1]
No form change,
CCOC(=O)C(C)NP(=O)(COCCn1cnc2c(OC)nc(N)nc21)OCc1ccccc1.O=C(O)C=CC(=O)O (centres unmarked) [Compound II Pattern 1]
No form change
CCOC(=O)C(C)NP(=O)(COCCn1cnc2c(OC)nc(N)nc21)OCc1ccccc1.CCOC(=O)C(C)NP(=O)(COCCn1cnc2c(OC)nc(N)nc21)OCc1ccccc1.O=C(O)C=CC(=O)O (mixture of isomers) [Compound I Hemifumarate Pattern 1]
No form change,
CCOC(=O)C(C)NP(=O)(COCCn1cnc2c(OC)nc(N)nc21)OCc1ccccc1.O=C(O)C=CC(=O)O (centres unmarked) [Compound III Pattern 2]
No form change

API: the following record is the query input.
input: Answer with reported XRPD after DVS test of CCOC(=O)C(C)NP(=O)(COCCn1cnc2c(OC)nc(N)nc21)OCc1ccccc1 (mixture of isomers) [Compound I free base Pattern 1]
output: No form change,
